Value type: melting point

Which melting point is reported for this compound? N#Cc1c2n[se]sc-2c(Cl)c1Cl [Compound 11b]
171 to 173 °C

Which melting point is reported for this compound? Clc1c2nssc-2c(Cl)c1Cl [Compound 10a]
122 to 124 °C

Which melting point is reported for this compound? ClC1=C2S[Se]N=C2c2ccccc2C(Cl)=C1Cl
144 to 145 °C

Which melting point is reported for this compound? c1ccc2c(c1)N=C1S[Se]N=C1O2
178 to 180 °C

Which melting point is reported for this compound? N#Cc1c2nssc-2c(Cl)c1Cl [Compound 10b]
217 to 219 °C

Which melting point is reported for this compound? ClC1=C2SSN=C2c2ccccc2C(Cl)=C1Cl
119 to 121 °C

Which melting point is reported for this compound? c1ccc2c(c1)N=C1SSN=C1O2
182 to 184 °C

Which melting point is reported for this compound? CCOC(=O)c1c2nssc-2c(Cl)c1Cl [Compound 10c]
80 to 82 °C

Which melting point is reported for this compound? CCOC(=O)c1c2n[se]sc-2c(Cl)c1Cl [Compound 11c]
188 to 190 °C

Which melting point is reported for this compound? Clc1c2n[se]sc-2c(Cl)c1Cl [Compound 11a]
117 to 119 °C

The values you see were collected from paper PMC7400446.
